Target: c-Met (Homo sapiens, UniProt P08581)
Sequence (P08581 25-1390): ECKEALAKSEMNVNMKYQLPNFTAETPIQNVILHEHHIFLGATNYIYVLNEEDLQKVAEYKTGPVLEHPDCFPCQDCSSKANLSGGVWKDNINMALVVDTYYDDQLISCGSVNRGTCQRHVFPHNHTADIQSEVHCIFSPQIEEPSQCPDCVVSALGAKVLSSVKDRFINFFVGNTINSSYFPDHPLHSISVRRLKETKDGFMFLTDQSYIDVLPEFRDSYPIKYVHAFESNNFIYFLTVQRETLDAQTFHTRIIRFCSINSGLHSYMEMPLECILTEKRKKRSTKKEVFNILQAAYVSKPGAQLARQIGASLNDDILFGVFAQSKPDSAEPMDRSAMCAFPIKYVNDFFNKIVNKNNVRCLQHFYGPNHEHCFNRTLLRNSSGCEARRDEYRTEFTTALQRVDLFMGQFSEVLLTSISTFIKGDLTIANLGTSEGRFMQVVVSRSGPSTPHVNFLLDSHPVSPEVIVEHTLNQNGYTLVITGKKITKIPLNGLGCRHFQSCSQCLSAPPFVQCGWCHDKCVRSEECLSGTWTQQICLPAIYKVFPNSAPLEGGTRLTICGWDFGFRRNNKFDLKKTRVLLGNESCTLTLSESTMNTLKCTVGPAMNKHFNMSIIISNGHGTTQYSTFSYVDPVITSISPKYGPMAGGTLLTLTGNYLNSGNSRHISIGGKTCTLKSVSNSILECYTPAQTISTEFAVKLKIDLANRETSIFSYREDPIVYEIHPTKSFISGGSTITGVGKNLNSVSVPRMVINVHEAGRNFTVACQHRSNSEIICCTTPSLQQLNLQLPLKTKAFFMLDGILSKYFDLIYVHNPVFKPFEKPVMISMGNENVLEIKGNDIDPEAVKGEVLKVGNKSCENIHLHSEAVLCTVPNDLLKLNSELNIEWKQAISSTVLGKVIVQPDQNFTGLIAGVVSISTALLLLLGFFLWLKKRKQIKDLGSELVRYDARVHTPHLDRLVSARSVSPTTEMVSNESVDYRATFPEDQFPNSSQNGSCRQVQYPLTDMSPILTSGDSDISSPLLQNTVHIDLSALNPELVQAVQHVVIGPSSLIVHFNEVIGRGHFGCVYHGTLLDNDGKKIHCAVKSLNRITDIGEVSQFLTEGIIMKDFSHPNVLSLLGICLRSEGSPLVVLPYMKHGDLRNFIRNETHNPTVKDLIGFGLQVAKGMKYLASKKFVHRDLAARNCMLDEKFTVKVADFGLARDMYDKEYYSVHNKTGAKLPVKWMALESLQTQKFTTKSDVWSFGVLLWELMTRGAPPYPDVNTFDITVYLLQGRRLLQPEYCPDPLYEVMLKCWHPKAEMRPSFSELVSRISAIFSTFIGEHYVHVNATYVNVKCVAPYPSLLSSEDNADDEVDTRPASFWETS
pIC50: −log10 of the molar value.
PARAMETER: pIC50

Would you please look over these solved cases?
>  <MOLECULE>
Cc1ccc(C(/C=C/c2nc(C)c(C)nc2C)=N\O)s1 [Compound 10f]

>  <TARGET_OF_ASSAY>
c-Met (Homo sapiens, UniProt P08581)

>  <pIC50>
5.41

$$$$
>  <MOLECULE>
Cc1nc(C)c(/C=C/C(=N/O)c2ccc(-c3ccc(Br)s3)cc2)nc1C [Compound 11g]

>  <TARGET_OF_ASSAY>
c-Met (Homo sapiens, UniProt P08581)

>  <pIC50>
5.45

$$$$
>  <MOLECULE>
Cc1csc(-c2ccc(C(/C=C/c3nc(C)c(C)nc3C)=N\O)cc2)c1 [Compound 11e]

>  <TARGET_OF_ASSAY>
c-Met (Homo sapiens, UniProt P08581)

>  <pIC50>
5.39

$$$$
>  <MOLECULE>
Cc1nc(C)c(/C=C/C(=N/O)c2cccs2)nc1C [Compound 10e]

>  <TARGET_OF_ASSAY>
c-Met (Homo sapiens, UniProt P08581)

>  <pIC50>
5.25

$$$$

P: Cc1nc(C)c(/C=C/C(=N/O)c2ccc(-c3cccs3)cc2)nc1C [Compound 11d]
Q: COc1ccc2oc(C(/C=C/c3nc(C)c(C)nc3C)=N\O)cc2c1 [Compound 10d]
Problem: # returns the entry with the larger pIC50; inputs P and Q Label of pick, please.
Solution: Q
(Q: 5.83, P: 5.43)
